// data source = the RNAGym collection of RNA variant scans (doi:10.1093/molbev/msab373)

B1: Azoarcus group I ribozyme (parent)
chain: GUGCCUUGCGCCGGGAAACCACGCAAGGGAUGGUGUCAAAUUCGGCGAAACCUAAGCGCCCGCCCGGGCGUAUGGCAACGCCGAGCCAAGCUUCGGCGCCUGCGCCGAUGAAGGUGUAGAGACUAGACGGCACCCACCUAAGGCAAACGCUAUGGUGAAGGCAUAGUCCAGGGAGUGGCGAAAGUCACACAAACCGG

# Variants of: B1
# TEST NAME: reverse-splicing fitness (ratio to wild type); higher = more active; in vitro selection; Mg2+ level not given
Okay, here is how we bin by reverse-splicing fitness: group A (below 0.006), group B (0.006 to below 0.01), group C (0.01 or more)

[[record]]
variant_label = "A111G A120U C150A C169A U176A"
group = "group A"

[[record]]
variant_label = "C82G A120C A145U C150G C169U U176A"
group = "group B"

[[record]]
variant_label = "A111G A145G C150A"
group = "group C"

[[record]]
variant_label = "C82U A111C A120C C150A C169A"
group = "group B"

[[record]]
variant_label = "A145U C150G C169A U176C"
group = "group C"

[[record]]
variant_label = "C82U A111C A120U A145U C150G C169A"
group = "group A"

[[record]]
variant_label = "C82A A111U C150G C169A U176A"
group = "group C"

[[record]]
variant_label = "C82A A111C A120C A145G C150A C169G U176C"
group = "group C"

[[record]]
variant_label = "C82U A111G C150G C169G U176C"
group = "group A"

[[record]]
variant_label = "C82U A111C C169U"
group = "group C"

[[record]]
variant_label = "C82G A120U A145G C150G C169G U176G"
group = "group A"

[[record]]
variant_label = "C82G C150G C169G U176G"
group = "group A"

[[record]]
variant_label = "A111C A145U C150A"
group = "group C"

[[record]]
variant_label = "C82U A111G A120G A145C C150A C169A U176C"
group = "group A"

[[record]]
variant_label = "C82G A111C A120U A145G C169G"
group = "group A"

[[record]]
variant_label = "A111G A120G A145G C150G U176G"
group = "group B"

[[record]]
variant_label = "C82U A111C A120C A145G C169A"
group = "group B"

[[record]]
variant_label = "A111U A120U C169U U176C"
group = "group C"

[[record]]
variant_label = "C82U A111U A145C C150U C169A U176G"
group = "group B"

[[record]]
variant_label = "A111C A120U A145C C169G"
group = "group C"

[[record]]
variant_label = "C82U A111G A120U A145C C150G C169G U176A"
group = "group A"

[[record]]
variant_label = "A111G A120G A145G C150A C169U U176A"
group = "group C"

[[record]]
variant_label = "A111C A145G C150U C169A"
group = "group C"

[[record]]
variant_label = "C82U A120G A145C C169U U176A"
group = "group C"

[[record]]
variant_label = "C82A A111G A120G A145U C169G U176C"
group = "group C"

[[record]]
variant_label = "C82A A111C A120G A145C C169U U176G"
group = "group A"

[[record]]
variant_label = "C82G A145C C150A U176A"
group = "group C"

[[record]]
variant_label = "C82A A120G C150A U176C"
group = "group C"

[[record]]
variant_label = "C82A A111U A120U A145U C169G"
group = "group A"

[[record]]
variant_label = "C82U A111C A120G A145C C150U C169G U176A"
group = "group C"

[[record]]
variant_label = "C82U A120U A145U C150G C169G U176G"
group = "group A"

[[record]]
variant_label = "A111C A120U C150U C169U U176G"
group = "group A"

[[record]]
variant_label = "C82U A111U A120U C150G C169G U176G"
group = "group A"

[[record]]
variant_label = "C82A A111C A120U A145G C150U C169U U176G"
group = "group A"

[[record]]
variant_label = "C82G A111U A120U A145U C150A C169U U176A"
group = "group A"

[[record]]
variant_label = "A111U A120U A145C C150A C169U U176C"
group = "group A"

[[record]]
variant_label = "A111C A120C C150G"
group = "group C"

[[record]]
variant_label = "C82U A120C A145U C169G U176C"
group = "group B"

[[record]]
variant_label = "C82G A111C A145G C150G U176G"
group = "group B"

[[record]]
variant_label = "C82A A111U A120G A145G C169G U176C"
group = "group C"

[[record]]
variant_label = "C82A A111U A120U A145G C169U"
group = "group A"

[[record]]
variant_label = "C82U A111C A145C C150G U176A"
group = "group B"

[[record]]
variant_label = "A120G A145G C150G C169U U176C"
group = "group C"

[[record]]
variant_label = "C82A A145U C150G U176A"
group = "group C"

[[record]]
variant_label = "A111C A120G A145G C150A U176G"
group = "group B"

[[record]]
variant_label = "C82U A111U A120C C169G"
group = "group B"

[[record]]
variant_label = "A111C A120G A145U C150U C169A U176G"
group = "group A"

[[record]]
variant_label = "C82U A111U A120C A145U C150U C169G U176G"
group = "group A"

[[record]]
variant_label = "C82G A111G A120U A145C C169G U176G"
group = "group A"

[[record]]
variant_label = "C82U A111U A145U C150G C169U U176C"
group = "group C"

[[record]]
variant_label = "C82A A111C A120C C169G U176G"
group = "group B"

[[record]]
variant_label = "C82G A120U C169G U176C"
group = "group A"

[[record]]
variant_label = "C82G A111C A120U A145G"
group = "group C"

[[record]]
variant_label = "C82A A111U A145G C150U C169U U176C"
group = "group C"

[[record]]
variant_label = "A120G A145G C150G U176G"
group = "group B"

[[record]]
variant_label = "C82A A120C A145U C169U"
group = "group C"

[[record]]
variant_label = "A111U A120C C150U C169G"
group = "group B"

[[record]]
variant_label = "A120G A145U C150U C169A"
group = "group C"

[[record]]
variant_label = "C82A A111C A120G A145C C169A U176A"
group = "group B"

[[record]]
variant_label = "A120C A145G C150A C169A U176C"
group = "group C"

[[record]]
variant_label = "C82A A120C A145U U176A"
group = "group C"

[[record]]
variant_label = "C82G A111G A145C C150A C169A U176A"
group = "group C"

[[record]]
variant_label = "C82A A111G A145G C150G C169U U176G"
group = "group B"

[[record]]
variant_label = "C82G A120U A145C C150A C169G U176C"
group = "group A"

[[record]]
variant_label = "C82A A111C A120U A145C C169U"
group = "group A"

[[record]]
variant_label = "C82U A111U A120C A145C C150A C169U U176C"
group = "group C"

[[record]]
variant_label = "C82A A111G A120C A145G C150G C169G U176C"
group = "group C"

[[record]]
variant_label = "C82G A120G A145U C150A U176C"
group = "group C"

[[record]]
variant_label = "C82A A145U C150U C169U U176G"
group = "group A"

[[record]]
variant_label = "C82G A111U A145G C169A"
group = "group B"

[[record]]
variant_label = "C82G A111G A120U C150U U176G"
group = "group A"

[[record]]
variant_label = "C82A A111U A120U A145C C150U C169G"
group = "group A"

[[record]]
variant_label = "C82G A111G A145C U176C"
group = "group C"

[[record]]
variant_label = "C82G A111G A145U C150G C169U"
group = "group B"

[[record]]
variant_label = "A120G A145G C150U U176C"
group = "group C"

[[record]]
variant_label = "C82A A111U C150U C169G U176C"
group = "group C"

[[record]]
variant_label = "C82U A111U A145G C169U U176C"
group = "group C"

[[record]]
variant_label = "C82U A111C A120C C150U C169A"
group = "group B"

